molecular target: human sodium ion channel 1.7 (hNav1.7) (Homo sapiens, UniProt Q15858); assay: Blocking effect against sodium ion channel Nav1.7, IonFlux16 auto patch clamp in hNav1.7 HEK293 cells; format: cell-based; settings: hNav1.7 HEK293 cells; inhibition of peak current after 50 seconds treatment; eight concentrations; read-out: IC50
Sequence (Q15858 whole entry): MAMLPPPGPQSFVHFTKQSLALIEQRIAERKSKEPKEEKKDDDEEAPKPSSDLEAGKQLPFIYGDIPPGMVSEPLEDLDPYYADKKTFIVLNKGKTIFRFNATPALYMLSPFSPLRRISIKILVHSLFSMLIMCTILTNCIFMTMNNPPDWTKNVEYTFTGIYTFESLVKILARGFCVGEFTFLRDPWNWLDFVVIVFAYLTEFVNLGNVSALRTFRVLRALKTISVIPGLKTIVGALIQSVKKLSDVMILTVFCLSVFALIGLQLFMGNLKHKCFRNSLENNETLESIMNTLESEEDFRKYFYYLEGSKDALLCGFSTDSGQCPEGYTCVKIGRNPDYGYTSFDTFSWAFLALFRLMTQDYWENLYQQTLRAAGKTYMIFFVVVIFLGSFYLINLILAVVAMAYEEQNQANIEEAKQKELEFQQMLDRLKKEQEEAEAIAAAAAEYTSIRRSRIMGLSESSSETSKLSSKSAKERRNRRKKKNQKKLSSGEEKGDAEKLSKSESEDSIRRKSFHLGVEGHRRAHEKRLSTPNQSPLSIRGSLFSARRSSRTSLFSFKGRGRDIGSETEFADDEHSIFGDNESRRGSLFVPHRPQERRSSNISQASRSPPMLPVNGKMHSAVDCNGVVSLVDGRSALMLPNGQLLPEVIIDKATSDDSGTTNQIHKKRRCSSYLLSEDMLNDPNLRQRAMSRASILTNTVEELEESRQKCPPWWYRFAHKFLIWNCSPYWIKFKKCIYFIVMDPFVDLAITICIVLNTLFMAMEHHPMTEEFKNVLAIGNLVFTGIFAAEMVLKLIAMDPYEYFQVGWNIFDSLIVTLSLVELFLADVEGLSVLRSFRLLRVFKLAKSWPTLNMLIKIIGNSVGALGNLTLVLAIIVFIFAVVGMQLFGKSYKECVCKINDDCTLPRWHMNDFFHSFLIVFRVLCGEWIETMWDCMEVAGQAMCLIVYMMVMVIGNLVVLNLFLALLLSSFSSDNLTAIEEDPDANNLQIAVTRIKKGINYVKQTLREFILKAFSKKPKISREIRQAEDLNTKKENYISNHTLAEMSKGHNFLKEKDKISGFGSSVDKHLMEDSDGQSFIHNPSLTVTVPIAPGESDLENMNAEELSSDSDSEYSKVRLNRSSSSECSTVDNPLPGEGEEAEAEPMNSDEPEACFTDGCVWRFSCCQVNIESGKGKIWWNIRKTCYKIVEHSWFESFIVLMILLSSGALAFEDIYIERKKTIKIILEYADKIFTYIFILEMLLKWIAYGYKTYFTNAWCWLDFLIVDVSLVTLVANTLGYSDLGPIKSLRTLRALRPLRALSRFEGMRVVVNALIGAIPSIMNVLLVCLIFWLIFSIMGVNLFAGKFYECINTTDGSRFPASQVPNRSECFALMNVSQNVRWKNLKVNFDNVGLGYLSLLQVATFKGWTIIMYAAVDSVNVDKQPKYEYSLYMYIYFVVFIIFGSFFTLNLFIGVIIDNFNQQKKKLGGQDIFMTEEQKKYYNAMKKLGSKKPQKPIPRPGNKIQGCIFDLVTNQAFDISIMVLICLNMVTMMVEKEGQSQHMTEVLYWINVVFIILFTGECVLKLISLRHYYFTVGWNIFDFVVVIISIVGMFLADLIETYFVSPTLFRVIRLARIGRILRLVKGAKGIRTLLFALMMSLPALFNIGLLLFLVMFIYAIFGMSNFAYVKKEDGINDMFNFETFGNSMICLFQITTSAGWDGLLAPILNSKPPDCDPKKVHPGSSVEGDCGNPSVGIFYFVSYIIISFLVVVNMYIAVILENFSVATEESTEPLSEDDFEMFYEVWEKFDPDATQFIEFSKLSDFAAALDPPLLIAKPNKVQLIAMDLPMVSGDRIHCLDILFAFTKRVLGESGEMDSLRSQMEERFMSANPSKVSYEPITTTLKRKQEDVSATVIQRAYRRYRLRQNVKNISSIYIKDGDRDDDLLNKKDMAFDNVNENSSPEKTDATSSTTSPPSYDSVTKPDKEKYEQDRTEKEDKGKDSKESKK

>  <compoundString>
CS(=O)(=O)NC(=O)c1cc(Cl)c(-n2nc(Br)c3cc(Cl)ccc32)cc1F

>  <operatorSymbol>
=

>  <IC50, nM>
216

$$$$
>  <compoundString>
CS(=O)(=O)NC(=O)c1cc(Cl)c(-n2nc(N)c3cc(Cl)ccc32)cc1F

>  <operatorSymbol>
>

>  <IC50, nM>
10000

$$$$
>  <compoundString>
CS(=O)(=O)NC(=O)c1cc(Cl)c(-n2nc(Cl)c3ccc(OCc4ccccc4)cc32)cc1F

>  <operatorSymbol>
=

>  <IC50, nM>
134

$$$$
>  <compoundString>
O=C(Nc1nccs1)c1cc(Cl)c(-n2nc(-c3ccc(Cl)cc3F)c3cc(Cl)ccc32)cc1F

>  <operatorSymbol>
>

>  <IC50, nM>
10000

$$$$
>  <compoundString>
Cc1ncc(-c2nn(-c3cc(F)c(C(=O)NS(C)(=O)=O)cc3Cl)c3ccc(Cl)cc23)s1

>  <operatorSymbol>
=

>  <IC50, nM>
1930

$$$$
>  <compoundString>
CS(=O)(=O)NC(=O)c1cc(Cl)c(-n2cc(-c3ccc(Cl)cc3F)c3cc(Cl)cnc32)cc1F

>  <operatorSymbol>
=

>  <IC50, nM>
110

$$$$
>  <compoundString>
CS(=O)(=O)NC(=O)c1cc(Cl)c(-n2nc(-c3ccc(Cl)cc3F)c3cc(F)ccc32)cc1F

>  <operatorSymbol>
=

>  <IC50, nM>
30

$$$$
>  <compoundString>
CS(=O)(=O)NC(=O)c1cc(Cl)c(-n2cc(-c3ccc(Cl)cc3)c3cc(F)cnc32)cc1F

>  <operatorSymbol>
=

>  <IC50, nM>
100

$$$$
